System: Proto-oncogene tyrosine-protein kinase Src (Homo sapiens) | Read-out: IC50
Sequence (P12931 2-536 limits assumed): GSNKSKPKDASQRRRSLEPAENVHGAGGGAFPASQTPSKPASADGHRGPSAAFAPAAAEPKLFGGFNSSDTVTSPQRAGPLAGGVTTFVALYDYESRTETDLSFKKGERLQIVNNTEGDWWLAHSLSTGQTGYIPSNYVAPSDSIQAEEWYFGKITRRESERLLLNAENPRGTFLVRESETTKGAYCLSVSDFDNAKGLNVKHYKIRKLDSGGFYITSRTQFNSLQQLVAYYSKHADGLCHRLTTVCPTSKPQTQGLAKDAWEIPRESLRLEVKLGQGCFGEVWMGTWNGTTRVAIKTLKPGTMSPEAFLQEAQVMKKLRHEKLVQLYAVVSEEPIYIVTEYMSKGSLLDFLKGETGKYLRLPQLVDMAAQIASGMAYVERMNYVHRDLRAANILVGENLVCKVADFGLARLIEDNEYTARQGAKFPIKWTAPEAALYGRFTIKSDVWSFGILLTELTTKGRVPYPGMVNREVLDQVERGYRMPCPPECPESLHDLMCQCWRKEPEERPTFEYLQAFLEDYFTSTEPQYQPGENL

c1nc(N2CCC3(CCCCN3)CC2)c2nc[nH]c2n1; 150 µM

Read off the recorded IC50 for `c1nc(N2CCC3(CCCNC3)CC2)c2nc[nH]c2n1`
18 µM

====

Measured inhibition, listed per entry for reference.
Biological target: UniProt Q15418
Sequence (Q15418 whole entry): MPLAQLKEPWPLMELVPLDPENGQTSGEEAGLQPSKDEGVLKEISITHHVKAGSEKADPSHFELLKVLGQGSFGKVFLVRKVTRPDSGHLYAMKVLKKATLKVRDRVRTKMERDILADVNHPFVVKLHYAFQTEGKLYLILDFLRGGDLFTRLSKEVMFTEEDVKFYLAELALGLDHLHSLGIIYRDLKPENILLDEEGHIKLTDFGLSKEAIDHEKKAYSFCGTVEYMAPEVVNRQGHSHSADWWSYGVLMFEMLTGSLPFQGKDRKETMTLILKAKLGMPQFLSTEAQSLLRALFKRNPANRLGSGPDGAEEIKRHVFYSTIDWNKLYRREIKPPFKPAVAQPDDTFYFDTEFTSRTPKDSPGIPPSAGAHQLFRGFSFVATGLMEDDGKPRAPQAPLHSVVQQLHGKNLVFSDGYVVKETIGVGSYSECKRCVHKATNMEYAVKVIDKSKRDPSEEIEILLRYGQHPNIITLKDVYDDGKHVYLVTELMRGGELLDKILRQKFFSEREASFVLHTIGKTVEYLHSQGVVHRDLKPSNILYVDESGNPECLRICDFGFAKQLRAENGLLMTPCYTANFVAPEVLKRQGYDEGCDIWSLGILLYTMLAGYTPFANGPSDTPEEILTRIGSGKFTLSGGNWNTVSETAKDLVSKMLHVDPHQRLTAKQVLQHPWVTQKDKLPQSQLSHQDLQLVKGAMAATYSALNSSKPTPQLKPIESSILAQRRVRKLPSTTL
Assay: Inhibition of RSK1 (unknown origin) at 30 uM by microfluidic mobility shift assay relative to control
Include the unit after the number when you answer.

Before answering, review these 10 worked examples.
c1nc(N2CCCC3(CCNCC3)C2)c2nc[nH]c2n1; 71%
c1nc(N2CCC3(CCCN3)CC2)c2nc[nH]c2n1; 72%
OC1CCNC2(CCN(c3ncnc4[nH]cnc34)CC2)C1 (racemic); 40%
c1ccc(C2CCNC3(CCN(c4ncnc5[nH]cnc45)CC3)C2)cc1 (racemic); 85%
OC1CCC2(CCN(c3ncnc4[nH]cnc34)CC2)NC1 (racemic); 67%
c1nc(N2CCC3(CCCCN3)CC2)c2nc[nH]c2n1; 60%
c1ccc(CC2CCC3(CCN(c4ncnc5[nH]cnc45)CC3)NC2)cc1 (racemic); 48%
O=S(=O)(c1cccc2cnccc12)N1CCC2(CCCN2)CC1; 82%
O=S(=O)(c1cccc2cnccc12)N1CCCC12CCNCC2; 16%
CN(C)C(=O)C1CCC2(CCN(c3ncnc4[nH]cnc34)CC2)NC1 (racemic); 28%

We next turn to a different molecule, shown below.
Read off the recorded inhibition for `c1nc(N2CCC3(CCNC3)CC2)c2nc[nH]c2n1`
77%

====

System: RAC-beta serine/threonine-protein kinase (Homo sapiens) | Read-out: pIC50
Sequence (P31751 whole entry): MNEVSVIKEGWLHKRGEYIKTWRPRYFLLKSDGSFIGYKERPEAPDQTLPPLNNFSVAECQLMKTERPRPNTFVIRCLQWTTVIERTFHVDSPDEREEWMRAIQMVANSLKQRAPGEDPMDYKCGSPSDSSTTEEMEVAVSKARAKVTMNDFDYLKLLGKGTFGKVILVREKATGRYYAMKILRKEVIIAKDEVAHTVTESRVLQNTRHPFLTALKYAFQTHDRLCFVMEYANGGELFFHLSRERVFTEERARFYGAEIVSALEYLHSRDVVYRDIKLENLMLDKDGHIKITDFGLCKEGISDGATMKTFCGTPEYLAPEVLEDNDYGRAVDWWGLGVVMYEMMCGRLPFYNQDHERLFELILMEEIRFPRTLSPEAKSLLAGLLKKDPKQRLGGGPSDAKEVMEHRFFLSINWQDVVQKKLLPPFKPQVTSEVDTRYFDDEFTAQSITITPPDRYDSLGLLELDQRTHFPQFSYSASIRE
// field semantics: pIC50 = negative decimal log of concentration (mol/L)

c1nc(N2CCC3(CCCNC3)CC2)c2nc[nH]c2n1; 5.02

We next turn to a different compound, shown below.
Given `c1nc(N2CCC3(CCCCN3)CC2)c2nc[nH]c2n1` , report its pIC50 on RAC-beta serine/threonine-protein kinase (Homo sapiens).
4.18

====

Molecular target: MAP kinase-activated protein kinase 2 (Homo sapiens) (UniProt P49137)
Sequence (P49137 whole entry, looked up): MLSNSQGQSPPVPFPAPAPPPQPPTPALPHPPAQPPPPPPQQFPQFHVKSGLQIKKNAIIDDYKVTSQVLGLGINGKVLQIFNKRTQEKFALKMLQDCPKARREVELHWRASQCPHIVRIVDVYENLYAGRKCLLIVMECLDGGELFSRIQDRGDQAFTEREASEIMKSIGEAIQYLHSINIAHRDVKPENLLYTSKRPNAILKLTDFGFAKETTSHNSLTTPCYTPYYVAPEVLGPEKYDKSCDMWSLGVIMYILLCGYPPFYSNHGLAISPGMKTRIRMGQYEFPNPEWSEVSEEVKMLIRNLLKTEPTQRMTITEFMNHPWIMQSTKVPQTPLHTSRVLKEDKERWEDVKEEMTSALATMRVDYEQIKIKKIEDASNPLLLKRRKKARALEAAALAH
Test: Inhibition of MK2 (unknown origin) at 30 uM by microfluidic mobility shift assay relative to control
measured_parameter: inhibition (%)
The response must be a number in % with no trailing unit.

c1nc(N2CCC3(CCCOC3)CC2)c2nc[nH]c2n1; 15
OC1CCNC2(CCN(c3ncnc4[nH]cnc34)CC2)C1 (racemic); 8
NC1(Cc2ccccc2)CCN(c2ncnc3[nH]cnc23)CC1; 23

Read off the recorded inhibition for `c1nc(N2CCC3(CCCCO3)CC2)c2nc[nH]c2n1`
20

Read off the recorded inhibition for CNC(=O)C1CCC2(CCN(c3ncnc4[nH]cnc34)CC2)NC1 (racemic)
10

Read off the recorded inhibition for `O=S(=O)(c1cccc2cnccc12)N1CCC2(CCNC2)CC1`
13

====

Molecular target: Mitogen-activated protein kinase 3 (Homo sapiens)
Sequence (P27361 whole entry): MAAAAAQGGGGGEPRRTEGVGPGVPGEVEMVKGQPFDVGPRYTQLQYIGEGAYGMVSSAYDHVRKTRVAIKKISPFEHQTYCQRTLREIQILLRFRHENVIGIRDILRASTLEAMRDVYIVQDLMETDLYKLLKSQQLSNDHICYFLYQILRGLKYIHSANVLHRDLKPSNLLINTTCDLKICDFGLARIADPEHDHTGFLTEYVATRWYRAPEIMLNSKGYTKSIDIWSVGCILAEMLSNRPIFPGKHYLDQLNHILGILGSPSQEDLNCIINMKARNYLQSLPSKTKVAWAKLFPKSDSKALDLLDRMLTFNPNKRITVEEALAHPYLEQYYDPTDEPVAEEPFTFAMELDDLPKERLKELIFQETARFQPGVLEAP
Assay: Inhibition of ERK1 (unknown origin) at 30 uM by microfluidic mobility shift assay relative to control
Could you label it met if measured inhibition is 10% or higher, and not met otherwise?

Consider the worked cases shown below.
O=C(O)C1CCC2(CCN(c3ncnc4[nH]cnc34)CC2)NC1 (racemic); met
OCC1CCC2(CCN(c3ncnc4[nH]cnc34)CC2)NC1 (racemic); met

Can `c1nc(N2CCC3(CCCCC3)CC2)c2nc[nH]c2n1` be said to have inhibition at or above 10%?
met

Can OC1CCC2(CCN(c3ncnc4[nH]cnc34)CC2)NC1 (racemic) be said to have inhibition at or above 10%?
met

Can `O=S(=O)(c1cccc2cnccc12)N1CCC2(CCCNC2)CC1` be said to have inhibition at or above 10%?
not met

====

Target: Serine/threonine-protein kinase D2 (Homo sapiens)
Assay: Inhibition of PKD2 (unknown origin) by microfluidic mobility shift assay
measured_parameter: pIC50
// field semantics: pIC50 = negative decimal log of concentration (mol/L)

c1nc(N2CCC3(CCCNC3)CC2)c2nc[nH]c2n1; 5.89

We next turn to a different compound, shown below.
Read off the recorded pIC50 for `c1nc(N2CCC3(CCCCN3)CC2)c2nc[nH]c2n1`
4.34

====

Target: Aurora kinase A (Homo sapiens)
Sequence (whole entry): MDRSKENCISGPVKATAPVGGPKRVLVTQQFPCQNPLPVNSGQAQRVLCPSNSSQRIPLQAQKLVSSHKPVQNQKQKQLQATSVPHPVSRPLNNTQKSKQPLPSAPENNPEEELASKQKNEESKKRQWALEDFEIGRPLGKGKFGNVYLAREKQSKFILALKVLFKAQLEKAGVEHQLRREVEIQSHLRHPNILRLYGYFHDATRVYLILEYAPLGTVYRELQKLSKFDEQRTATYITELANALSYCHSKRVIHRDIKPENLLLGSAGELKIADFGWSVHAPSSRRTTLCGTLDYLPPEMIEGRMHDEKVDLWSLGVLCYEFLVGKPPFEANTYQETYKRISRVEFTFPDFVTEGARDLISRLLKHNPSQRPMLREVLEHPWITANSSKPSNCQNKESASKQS
Assay: Inhibition of AURA (unknown origin) at 30 uM by microfluidic mobility shift assay relative to control
Measured inhibition, listed per entry for reference.
The response must be a number in % with no trailing unit.

Before answering, review these 2 worked examples.
COC(=O)C1CCC2(CCN(c3ncnc4[nH]cnc34)CC2)NC1 (racemic); 64
O=C(O)C1CCC2(CCN(c3ncnc4[nH]cnc34)CC2)NC1 (racemic); 95

Read off the recorded inhibition for `c1nc(N2CCC3(CCCCO3)CC2)c2nc[nH]c2n1`
92

Read off the recorded inhibition for OC1CCNC2(CCN(c3ncnc4[nH]cnc34)CC2)C1 (racemic)
63

Read off the recorded inhibition for c1ccc(CC2CCC3(CCN(c4ncnc5[nH]cnc45)CC3)NC2)cc1 (racemic)
89

====

Measured pIC50, listed per entry for reference.
Molecular target: Casein kinase I isoform delta (Homo sapiens)
Sequence (P48730 whole entry, canonical isoform): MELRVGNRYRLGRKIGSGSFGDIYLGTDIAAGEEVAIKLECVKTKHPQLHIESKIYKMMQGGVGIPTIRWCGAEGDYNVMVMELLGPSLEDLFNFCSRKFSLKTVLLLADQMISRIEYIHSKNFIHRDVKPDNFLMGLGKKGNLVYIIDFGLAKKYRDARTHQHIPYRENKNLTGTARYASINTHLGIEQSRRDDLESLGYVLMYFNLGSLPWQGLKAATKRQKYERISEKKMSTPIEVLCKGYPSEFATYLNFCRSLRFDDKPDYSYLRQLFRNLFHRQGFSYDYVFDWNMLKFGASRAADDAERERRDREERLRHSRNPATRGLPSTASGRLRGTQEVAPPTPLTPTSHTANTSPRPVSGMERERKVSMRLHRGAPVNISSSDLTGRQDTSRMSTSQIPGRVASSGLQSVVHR
Assay: Inhibition of CK1delta (unknown origin) by microfluidic mobility shift assay
// field semantics: pIC50 = negative decimal log of concentration (mol/L)

c1nc(N2CCC3(CCCCN3)CC2)c2nc[nH]c2n1; 3.62

We next turn to a different molecule, shown below.
Read off the recorded pIC50 for `c1nc(N2CCC3(CCCNC3)CC2)c2nc[nH]c2n1`
4.01

====

Molecular target: Serine/threonine-protein kinase D2 (Homo sapiens) (UniProt Q9BZL6)
Sequence (whole entry): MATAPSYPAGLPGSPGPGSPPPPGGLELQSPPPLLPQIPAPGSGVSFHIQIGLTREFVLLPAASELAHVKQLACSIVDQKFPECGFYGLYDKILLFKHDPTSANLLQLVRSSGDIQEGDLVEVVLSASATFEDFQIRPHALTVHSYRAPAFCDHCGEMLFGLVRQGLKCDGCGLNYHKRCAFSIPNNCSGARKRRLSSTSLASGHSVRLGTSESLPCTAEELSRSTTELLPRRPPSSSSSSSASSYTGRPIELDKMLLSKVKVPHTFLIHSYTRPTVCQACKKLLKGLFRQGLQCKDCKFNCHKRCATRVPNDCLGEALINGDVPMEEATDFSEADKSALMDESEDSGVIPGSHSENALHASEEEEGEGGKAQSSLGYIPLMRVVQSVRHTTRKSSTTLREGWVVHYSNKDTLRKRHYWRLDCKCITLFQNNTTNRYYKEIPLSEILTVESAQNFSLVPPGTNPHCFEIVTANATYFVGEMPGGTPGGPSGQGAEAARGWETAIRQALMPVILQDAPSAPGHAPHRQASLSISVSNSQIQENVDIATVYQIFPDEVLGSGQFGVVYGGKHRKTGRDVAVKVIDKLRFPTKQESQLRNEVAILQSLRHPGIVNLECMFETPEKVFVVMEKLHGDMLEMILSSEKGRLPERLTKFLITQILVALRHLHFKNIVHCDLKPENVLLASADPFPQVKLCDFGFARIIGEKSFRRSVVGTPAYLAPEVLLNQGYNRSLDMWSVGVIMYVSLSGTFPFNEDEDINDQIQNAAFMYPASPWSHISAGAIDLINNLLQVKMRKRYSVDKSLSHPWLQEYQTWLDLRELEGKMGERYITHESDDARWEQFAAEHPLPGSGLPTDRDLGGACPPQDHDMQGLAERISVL
Test: Inhibition of PKD2 (unknown origin) at 30 uM by microfluidic mobility shift assay relative to control
Measured inhibition, listed per entry for reference.
The response must be a number in % with no trailing unit.

Before answering, review these 2 worked examples.
OC1CCNC2(CCN(c3ncnc4[nH]cnc34)CC2)C1 (racemic); 23
c1nc(N2CCC3(CCNC3)CC2)c2nc[nH]c2n1; 80

Read off the recorded inhibition for `c1nc(N2CCC3(CCCCC3)CC2)c2nc[nH]c2n1`
5

Read off the recorded inhibition for c1ccc(C2CCC3(CCN(c4ncnc5[nH]cnc45)CC3)NC2)cc1 (stereo unspecified)
33

Read off the recorded inhibition for `c1nc(N2CCC3(CCCOC3)CC2)c2nc[nH]c2n1`
17

Read off the recorded inhibition for `O=S(=O)(c1cccc2cnccc12)N1CCC2(CCCNC2)CC1`
15
